target: Dickkopf-related protein 1 (Homo sapiens); assay: small molecules binding DKK1 protein – biochemical, small-molecule microarray, 635 nm fluorescence scan, primary screen (AID 1106); conditions: higher = more signal;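 also: score merges emission near 667 nm with signal to noise over three replicate slides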
Would you mind labelling by composite z-score? At or over -0.1 is met, under is not met.

| compound | class |
| --- | --- |
| O=C1NC(=O)C2C1C=CC(C(O)c1ccc(-c3ccccc3)s1)N2Nc1ccccn1 (centres undefined) | met |

Does composite z-score meet or surpass -0.1 for CCN(CC)c1ccc(N2CC=CC34O[C@@H]5/C=C\CCCOC(=O)C5[C@H]3C(=O)N(CCCCCCO)[C@@H]4C2=O)cc1 (some centres undefined) ?
not met

Query CCOC(=O)C[C@H]1[C@H](OC(=O)c2ccc(C(=O)c3ccccc3)cc2)[C@@H](NC(=O)C2CCCCC2)c2cc(OCCCO)ccc2N1C(=O)Cc1ccc(OC)cc1 next
met

Same thing, different compound: NC(=O)[C@H]1[C@@H]2C(=O)O[C@@H](c3ccccc3)[C@@H](c3ccccc3)N2[C@@H](c2ccc(O)cc2)[C@]12C(=O)Nc1ccc(C#CC3(O)CCCCCC3)cc12
met

Cool, now COC(=O)[C@@]1(Cc2ccc(OC)cc2)[C@H]2c3cc(C(=O)N(C)C)n(Cc4cc(F)c(F)c(F)c4)c3C[C@H]2CN1C(=O)c1ccccc1
not met

Same read-out for CC1C=C(CCCO)C=C(C(=O)OCCS(C)(=O)=O)C(C(=O)OCCS(C)(=O)=O)=CN1Cc1cccc(OC(F)(F)F)c1 (centres undefined) ?
not met

Similarly, [N-]=[N+]=NCc1ccccc1[C@H]1OC(c2ccc(OCCCO)cc2)=N[C@@]1(Cc1ccccc1)C(N)=O ?
not met

Now give it for COCCOC(=O)N1C(=O)[C@@]2(c3cc(C#CCNC(N)=O)ccc31)[C@H](C(=O)N1CCCCCCC1)[C@H]1C(=O)O[C@H](c3ccccc3)[C@H](c3ccccc3)N1[C@@H]2c1ccc(OCCO)cc1 too.
met

What do you have for C=CCOC(=O)[C@H]1[C@@H]2C(=O)O[C@@H](c3ccccc3)[C@@H](c3ccccc3)N2[C@@H](c2ccc(OCCOC(=O)[C@H]3C[C@H]4C(=O)N[C@@H](CCCCN(C)C)C(=O)N4[C@H]3c3ccc(O)cc3)cc2)[C@]12C(=O)Nc1ccccc12 ?
met

Let us now turn to COC(=O)[C@@]1(Cc2ccccc2)[C@H]2c3cc(C(=O)N4CCCC4)n(CCO)c3C[C@H]2CN1C(=O)c1ccccc1
met

Same question, CN(C)CCCC[C@@H]1NC(=O)[C@H]2C[C@@H](C(=O)NCCCCCCNC(=O)CS)[C@@H](c3ccc(O)cc3)N2C1=O this time
not met

Another: COCC1=C([C@H](O)CCc2ccccc2)[C@H](CO)[C@@H]2C(=O)N(C)C(=O)[C@@H]2C1
met

How about Cc1ccc(N2C(=O)c3ccccc3[C@](C)(C(=O)NC(C)C)[C@@H]2c2ccc(CO)cc2)nc1 ?
not met

Queued: C=C(/C(=C/C[C@@H](OC(=O)c1ccncc1)c1cccc(OCCO)c1)c1cc(C(=O)OC)ccc1OC)C(C)C
met

Could you do the same for COC(=O)[C@@]1(Cc2ccc(OC)cc2)[C@H]2c3cc(C(=O)N(C)C)n(CCF)c3C[C@H]2CN1C(=O)c1ccccc1 , please?
not met

What do you get for COCCOC(=O)N1C(=O)[C@@]2(c3cc(C#CCNC(N)=O)ccc31)[C@H](C(N)=O)[C@H]1C(=O)O[C@H](c3ccccc3)[C@H](c3ccccc3)N1[C@@H]2c1ccc(OCCO)cc1 ?
met

Entry COC(=O)[C@@]1(Cc2ccc(OC)cc2)[C@H]2c3cc(C(=O)N(C)C)n(Cc4cc(C)n(C)n4)c3C[C@H]2CN1C(=O)c1ccccc1 please
not met

Also, NC(=O)[C@@H]1[C@H]2C(=O)O[C@H](c3ccccc3)[C@H](c3ccccc3)N2[C@H](c2ccccc2OCCO)[C@@]12C(=O)Nc1ccc(C#CCCO)cc12 please.
not met

Similarly, Cc1ccc(S[C@]2(C(=O)NCC(C)C)CC(=O)N(C3CCCCC3)[C@@H]2c2ccc(CO)cc2I)cc1 ?
not met
